B1: Pistol ribozyme (parent)
chain: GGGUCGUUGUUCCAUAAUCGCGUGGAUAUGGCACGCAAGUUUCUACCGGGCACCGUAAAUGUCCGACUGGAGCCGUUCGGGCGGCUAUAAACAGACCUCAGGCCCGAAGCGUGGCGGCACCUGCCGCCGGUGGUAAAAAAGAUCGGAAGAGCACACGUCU

- Variants of: B1
- experiment description: aptazyme ON/OFF ratio, guanine; higher = stronger switching; co-transcriptional cleavage with and without guanine
quantity measured: aptazyme ON/OFF ratio
Output spec: single numeric token, no unit.

Here is how some variants turned out for aptazyme ON/OFF ratio.
U7C U8C G9A U10A U11A C12A C13U; 1.19
U8A G9C U10C U11G C13U; 1.08
U7C C12U C13U; 1.05

Reported aptazyme ON/OFF ratio for U7C U8C G9C U11C C12G : what is it?
1.24

Reported aptazyme ON/OFF ratio for U7A U8A U10G C12G C13U : what is it?
1.28

Reported aptazyme ON/OFF ratio for U7G U8C G9U C12G C13U : what is it?
1.32

Reported aptazyme ON/OFF ratio for G9C U10G U11A C12U C13A : what is it?
1.09

Reported aptazyme ON/OFF ratio for U7A U8C G9A U10G U11C C12G : what is it?
1.22

Reported aptazyme ON/OFF ratio for U8A G9A U10A U11G C12A C13A : what is it?
1.03

Reported aptazyme ON/OFF ratio for U8A G9C U10G U11G C13U : what is it?
1.23

Reported aptazyme ON/OFF ratio for U7G U8A G9U U10C U11A C12U C13U : what is it?
1.06

Reported aptazyme ON/OFF ratio for U7A G9A C13U : what is it?
1.32

Reported aptazyme ON/OFF ratio for U7C U8A G9C U11G C12G C13A : what is it?
1.1

Reported aptazyme ON/OFF ratio for U7A U8C U10C U11G C12U C13A : what is it?
1.28

Reported aptazyme ON/OFF ratio for G9U U10G U11A C12U : what is it?
1.3

Reported aptazyme ON/OFF ratio for U7A U8A G9U U10G U11A C12G : what is it?
1.32

Reported aptazyme ON/OFF ratio for U8A G9C U10G U11A C12A C13A : what is it?
1.18

Reported aptazyme ON/OFF ratio for U7C U8C U10C U11C C13G : what is it?
1.28

Reported aptazyme ON/OFF ratio for U7C G9A U10C U11C C12A C13A : what is it?
1.07

Reported aptazyme ON/OFF ratio for U7A U8A U10A U11C C13U : what is it?
0.989
